# assay procedure: Plasma metabolites and pharmacokinetics after single intake of lemon or orange extract (UPLC-ESI-QTOF-MS, non-compartmental analysis)
# Type: in vivo, human
# experimental context: human, oral, 1.95 g, after orange (hesperidin) extract, mean ± SD
Cmax values by entry
Respond numerically; units are nM and should not be typed.

Would you please look over these solved cases?
Consider the compound O=C1CC(c2ccc(O)cc2)Oc2cc(OC3OC(C(=O)O)C(O)C(O)C3O)cc(O)c21 (centres unmarked) [M3, Naringenin 7-O-glucuronide] and give its measured Cmax. 4.7

And for O=C1CC(c2ccc(OC3OC(C(=O)O)C(O)C(O)C3O)cc2)Oc2cc(O)cc(O)c21 (centres unmarked) [M5, Naringenin 4′-O-glucuronide] ? 7.3

Likewise for COc1ccc(C2CC(=O)c3c(O)cc(OC4OC(C(=O)O)C(O)C(O)C4O)cc3O2)cc1O (centres unmarked) [M7, Hesperetin 7-O-glucuronide] ? 49.6

Then what about the compound COc1ccc(C2CC(=O)c3c(O)cc(O)cc3O2)cc1OC1OC(C(=O)O)C(O)C(O)C1O (centres unmarked) [M8, Hesperetin 3′-O-glucuronide] ? 107

More entries:
What does the data say about its Cmax? Entry: COc1ccc(C2CC(=O)c3c(O)cc(O)cc3O2)cc1OS(=O)(=O)O (centres unmarked) [M14, Hesperetin 3′-O-sulfate] 178

* * *

# assay procedure: Urinary excretion of flavanone-derived metabolites after single intake of lemon or orange extract (UPLC-ESI-QTOF-MS)
# Format: in vivo, human
# experimental context: orange extract (1.95 g, 260 mg hesperidin), urine fraction 0-4 h, mean ± SD
Reported Urinary excretion F1 values for the following molecules.
Write the value in µg/mg creatinine as a bare number.

The cases that follow already have their Urinary excretion F1 on record.
// query Urinary excretion F1 value for entry O=C1CC(c2ccc(OC3OC(C(=O)O)C(O)C(O)C3O)c(O)c2)Oc2cc(O)cc(O)c21 (stereo not shown) [M4, Eriodictyol glucuronide-3] 0.1

Also check O=C1CC(c2ccc(O)c(OC3OC(C(=O)O)C(O)C(O)C3O)c2)Oc2cc(O)cc(O)c21 (stereo not shown) [M2, Eriodictyol glucuronide-2] 0.1

Param item: COc1ccc(C2CC(=O)c3c(O)cc(O)cc3O2)cc1OS(=O)(=O)O (stereo not shown) [M14, Hesperetin 3′-O-sulfate] 0.1

***
Which Urinary excretion F1 value belongs to COc1ccc(C2CC(=O)c3c(O)cc(OC4OC(C(=O)O)C(O)C(O)C4O)cc3O2)cc1O (stereo not shown) [M7, Hesperetin 7-O-glucuronide] ? 0.2

* * *

# assay procedure: Plasma metabolites and pharmacokinetics after single intake of lemon or orange extract (UPLC-ESI-QTOF-MS, non-compartmental analysis)
# Type: in vivo, human
# experimental context: after consuming orange extract, n = 16 volunteers
Kind request: treat 7 as inclusive, so Occurrence Plasma OE (number of volunteers in whom the metabolite was detected) at 7 or higher is label 1, anything lower is label 0.

Some entries whose results are on file:
Determine whether measured Occurrence Plasma OE (number of volunteers in whom the metabolite was detected) meets or exceeds 7 for O=C1CC(c2ccc(O)c(O)c2)Oc2cc(OC3OC(C(=O)O)C(O)C(O)C3O)cc(O)c21 (centres unmarked) [M1, Eriodictyol glucuronide-1] label 0

What would you report for COc1ccc(C2CC(=O)c3c(O)cc(OC4OC(C(=O)O)C(O)C(O)C4O)cc3O2)cc1O (centres unmarked) [M7, Hesperetin 7-O-glucuronide] ? label 1

Also COc1cc([C@@H]2CC(=O)c3c(O)cc(O)cc3O2)ccc1O [M16, Homoeriodictyol] ? label 0

Follow-up item: O=C1C[C@@H](c2ccc(O)cc2)Oc2cc(O)cc(O)c21 [M15, Naringenin] label 0

Moving on to O=C1CC(c2ccc(OC3OC(C(=O)O)C(O)C(O)C3O)cc2)Oc2cc(O)cc(O)c21 (centres unmarked) [M5, Naringenin 4′-O-glucuronide] label 1

Moving on to another compound below.
Confirm if Occurrence Plasma OE (number of volunteers in whom the metabolite was detected) reported for the compound COc1ccc(C2CC(=O)c3c(O)cc(O)cc3O2)cc1OC1OC(C(=O)O)C(O)C(O)C1O (centres unmarked) [M8, Hesperetin 3′-O-glucuronide] is 7 or above. label 1

Where do these numbers come from? They come from paper PMC8000041.
